biological target: neutravidin (UniProt P02701); assay: specificity phage ELISA
Sequence (P02701 25-152): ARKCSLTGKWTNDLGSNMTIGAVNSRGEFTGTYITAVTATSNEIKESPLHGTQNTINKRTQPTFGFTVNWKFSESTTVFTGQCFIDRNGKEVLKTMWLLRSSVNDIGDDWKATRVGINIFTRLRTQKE
Reported ELISA signal at 450 nm values are given for each entry in this list.
Enter the number alone.

binder: G32 (Fab, V domains shown) VH: EVQLVESGGGLVQPGGSLRLSCAASGFSIWWSWIHWVRQAPGKGLEWVASISPSSGWTSYADSVKGRFTISADTSKNTAYLQMNSLRAEDTAVYYCARWWSSGMDYWGQGTLVTVSS VL: DIQMTQSPSSLSASVGDRVTITCRASQDVNTAVAWYQQKPGKAPKLLIYSASSLYSGVPSRFSGSRSGTDFTLTISSLQPEDFATYYCQQWWWWPWTFGQGTKVEIK
measured_value: 0.33

binder: G29 (Fab, V domains shown) VH: EVQLVESGGGLVQPGGSLRLSCAASGFSIWWSWIHWVRQAPGKGLEWVASISPSSGWTSYADSVKGRFTISADTSKNTAYLQMNSLRAEDTAVYYCARWWSSAIDYWGQGTLVTVSS VL: DIQMTQSPSSLSASVGDRVTITCRASQDVNTAVAWYQQKPGKAPKLLIYSASSLYSGVPSRFSGSRSGTDFTLTISSLQPEDFATYYCQQSWWWPWTFGQGTKVEIK
measured_value: 0.26

In plain terms, Clone G37 (SX-surface), purified Fab (Fab, V domains shown) VH: EVQLVESGGGLVQPGGSLRLSCAASGFSIWWSWIHWVRQAPGKGLEWVASISPSSGWTSYADSVKGRFTISADTSKNTAYLQMNSLRAEDTAVYYCARWWSSAMDYWGQGTLVTVSS VL: DIQMTQSPSSLSASVGDRVTITCRASQDVNTAVAWYQQKPGKAPKLLIYSASSLYSGVPSRFSGSRSGTDFTLTISSLQPEDFATYYCQQWWWWPSTFGQGTKVEIK has a documented ELISA signal at 450 nm of 0.32

In plain terms, G40 (Fab, V domains shown) VH: EVQLVESGGGLVQPGGSLRLSCAASGFSIWWSWIHWVRQAPGKGLEWVASISPSSGWTSYADSVKGRFTISADTSKNTAYLQMNSLRAEDTAVYYCARWSSWGLDYWGQGTLVTVSS VL: DIQMTQSPSSLSASVGDRVTITCRASQDVNTAVAWYQQKPGKAPKLLIYSASSLYSGVPSRFSGSRSGTDFTLTISSLQPEDFATYYCQQWSWWPSTFGQGTKVEIK has a documented ELISA signal at 450 nm of 0.45
